Each recorded value in this set is attributed to ChEMBL document CHEMBL2375216.

ED50 for assorted molecules
# Tested on: Rattus norvegicus
# Test: Antiinflammatory activity in ip dosed Sprague-Dawley rat assessed as inhibition of carrageenan-induced paw edema measured after 2 hrs plethysmometric analysis
# Assay type: functional
Measured Quantity: ED50 (mg/kg)

Compound Structure String | Scale Unit | Quantitative Result
NS(=O)(=O)c1ccc(CN2C(=O)c3cc(Cl)c(Cl)cc3C2=O)cc1 | mg/kg | 100
NS(=O)(=O)c1ccc(CN2C(=O)c3nccnc3C2=O)cc1 | mg/kg | 126
Cc1ccc(-c2cc(C(F)(F)F)nn2-c2ccc(S(N)(=O)=O)cc2)cc1 | mg/kg | 83.4
NS(=O)(=O)c1ccc(N2C(=O)c3cc(Cl)c(Cl)cc3C2=O)cc1 | mg/kg | 111
NS(=O)(=O)c1ccc(N2C(=O)c3nccnc3C2=O)cc1 | mg/kg | 160
